The values you see were collected from ChEMBL document CHEMBL4033657.

# testedOn: Acetylcholinesterase (Anopheles gambiae)
# measurementProtocol: Inhibition of AChE1 in Anopheles gambiae head extract using acetylthiocholine iodide as substrate measured over 60 secs by Ellman's method
Can you tell me pIC50 for the items I'm about to list?
Here pIC50 is given on a logarithmic scale as minus log10 of the concentration in mol/L.

## Input Respond only with pIC50 recorded for COc1ccccc1NC(=S)NCCN(C)C
## Output 5.15

## Input Respond only with pIC50 recorded for COc1ccc(NC(=S)NCCN2CCOCC2)cc1Cl
## Output 6.72

---

# testedOn: Acetylcholinesterase (Anopheles gambiae)
# measurementProtocol: Inhibition of recombinant full length Anopheles gambiae AChE1 expressed in baculovirus-infected Sf9 insect cells at 1 mM using acetylthiocholine iodide as substrate measured over 60 secs by Ellman's method
Can you tell me inhibition for the items I'm about to list?

## Input Respond only with inhibition recorded for NS(=O)(=O)c1ccc(NC(=S)NCCN2CCCCC2)cc1
## Output 70%

## Input Respond only with inhibition recorded for COc1ccccc1NC(=S)NCCN(C)C
## Output 50%

## Input Respond only with inhibition recorded for COc1ccc(NC(S)=NCCN2CCC(C)CC2)cc1Cl
## Output 90%

---

# testedOn: Acetylcholinesterase (Anopheles gambiae, UniProt Q869C3, G122S)
# measurementProtocol: Inhibition of recombinant full length Anopheles gambiae AChE1 G122S mutant expressed in baculovirus-infected Sf9 insect cells using acetylthiocholine iodide as substrate measured over 60 secs by Ellman's method
Can you tell me IC50 for the items I'm about to list?

## Input Respond only with IC50 recorded for COc1ccc(NC(S)=NCCN2CCC(C)CC2)cc1
## Output > 200 µM

## Input Respond only with IC50 recorded for COc1ccc(NC(S)=NCCN2CCC(C)CC2)cc1Cl
## Output 24 µM

## Input Respond only with IC50 recorded for S=C(NCCN1CCCCC1)Nc1cccc(Cl)c1
## Output 22 µM

## Input Respond only with IC50 recorded for NS(=O)(=O)c1ccc(NC(=S)NCCN2CCCCC2)cc1
## Output 33 µM

## Input Respond only with IC50 recorded for COc1ccc(NC(=S)NCCN(C)C)cc1Cl
## Output 17 µM

## Input Respond only with IC50 recorded for CN(C)CCNC(=S)Nc1ccccc1Cl
## Output > 200 µM

## Input Respond only with IC50 recorded for COc1ccccc1NC(=S)NCCN(C)C
## Output 50 µM

## Input Respond only with IC50 recorded for COc1ccc(NC(S)=NCCN2CCOCC2)cc1
## Output > 200 µM

## Input Respond only with IC50 recorded for S=C(NCCN1CCOCC1)Nc1cccc(Cl)c1
## Output > 200 µM

## Input Respond only with IC50 recorded for FC(F)(F)c1ccc(NC(=S)NCCN2CCCCC2)cc1
## Output > 200 µM

## Input Respond only with IC50 recorded for CN(C)CCN=C(S)Nc1cccc(Cl)c1
## Output > 200 µM

## Input Respond only with IC50 recorded for COc1ccc(NC(=S)NCCN(C)C)cc1
## Output > 200 µM

## Input Respond only with IC50 recorded for COc1ccccc1NC(=S)NCCN1CCCCC1
## Output 66 µM

## Input Respond only with IC50 recorded for COc1cc(NC(=S)NCCN2CCOCC2)ccc1Cl
## Output > 200 µM

## Input Respond only with IC50 recorded for CC1CCN(CCNC(=S)Nc2cccc(Cl)c2)CC1
## Output > 200 µM

## Input Respond only with IC50 recorded for COc1ccc(NC(=S)NCCN2CCOCC2)cc1Cl
## Output 84 µM

## Input Respond only with IC50 recorded for COc1ccc(NC(=S)NCCN2CCCCC2)cc1
## Output 94 µM
